All values here come from PubChem BioAssay AID1918944.

viability, T/C by entry:
Tested on: 786-0 complex spheroid viability
assay procedure: Anticancer human tumor 786-0 cell line growth inhibition;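 also: spheroids exposed to agents for seven days before readout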
conditions: second compound 1 µM; first compound 0.316 µM; stronger effect = lower value
quantity kind: viability, T/C (%)

molecule	system tested	obs value
Nc1ncn(C2CC(O)C(CO)O2)c(=O)n1 (centres undefined) + NC1CC1c1ccc(-c2cccc(O)c2)cc1	786-0 complex spheroid viability	90.9
CC1COCCN1c1cc(-c2ccnn2C)c2ccnc(-c3ccn[nH]3)c2n1 (centres undefined) + NC1CC1c1ccc(-c2cccc(O)c2)cc1	786-0 complex spheroid viability	15.8
CC1(C)CCC(CN2CCN(c3ccc(C(=O)NS(=O)(=O)c4ccc(NCC5CCOCC5)c([N+](=O)[O-])c4)c(Oc4cnc5[nH]ccc5c4)c3)CC2)=C(c2ccc(Cl)cc2)C1 + NC1CC1c1ccc(-c2cccc(O)c2)cc1	786-0 complex spheroid viability	106
COc1cc(Nc2ncc3c(n2)-c2ccc(Cl)cc2C(c2c(F)cccc2OC)=NC3)ccc1C(=O)O + NC1CC1c1ccc(-c2cccc(O)c2)cc1	786-0 complex spheroid viability	52
